Tested on: Saccharomyces cerevisiae
Test: protein stability index of tFT-peptide fusion (C-terminal peptide) (PSI (0-1 scale)); higher = more stable (slower turnover)
Conditions: genetic background: wild type; temperature: 30 C
assay.endpoint: protein stability index

Some entries whose results are on file:
Query :: Note down protein stability index recorded for KLGSYLRDYLRK [GLO3 C-terminal 12 aa]
Result :: 0.689

Query :: Note down protein stability index recorded for KETFIQVWEKQE [SAD1 C-terminal 12 aa]
Result :: 0.651

Query :: Note down protein stability index recorded for DGSGKYFLKHDS [KTR2 C-terminal 12 aa]
Result :: 0.708

Query :: Note down protein stability index recorded for VTGKEKFEKLRD [SPG3 C-terminal 12 aa]
Result :: 0.685

Query :: Note down protein stability index recorded for NCIETFVAEKTT [SRB6 C-terminal 12 aa]
Result :: 0.669

Query :: Note down protein stability index recorded for LIDSYCLGGESR [YPL034W C-terminal 12 aa]
Result :: 0.697

Parameter requested: protein stability index. Apply to each item below.
1. KTTPRNVELFGM [DXO1 C-terminal 12 aa]
2. IAPIRIYKITKQ [EFM3 C-terminal 12 aa]

Result ::
1. 0.693
2. 0.677

Parameter requested: protein stability index. Apply to each item below.
1. TSSTPKSPSSGS [SMY1 C-terminal 12 aa]
2. EEMIRSSSLYDE [ACA1 C-terminal 12 aa]
3. GQALLDQFAKFK [LSC1 C-terminal 12 aa]
4. ELTKQHGNKDSN [RTK1 C-terminal 12 aa]

Result ::
[0.67, 0.711, 0.687, 0.659]
